Below, each entry is listed alongside its reported hGITR-His/BKG.
STUDY TARGET: T1, human His6-GITR (human, UniProt Q9Y5U5 26-162)
T1 construct: His6-tagged recombinant protein; also called hGITR-His; human GITR-His
T1 sequence: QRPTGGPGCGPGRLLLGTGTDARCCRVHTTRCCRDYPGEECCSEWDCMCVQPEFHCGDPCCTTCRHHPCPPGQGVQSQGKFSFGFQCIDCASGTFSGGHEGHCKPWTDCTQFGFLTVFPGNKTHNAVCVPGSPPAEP
ASSAY NAME: ELISA, scFv periplasmic extract on coated His6-GITR
The response must be a number in fold over background with no trailing unit.

BINDER	UNIT	hGITR-His/BKG
GITR-Mab-31 scFv (scFv, V domains shown, scFv in periplasmic extract, V5 tag) VH: QVQLVQSGAEVKKPGSSVKVSCKASGGTFSSYAISWVRQAPGQGLEWMGGIIPISSATSIPQKFQGRVTITADESTSTAYMELSSLRSEDTAVYYCARSYDSRYYGMDVWGQGTTVTVSS VL: EIVMTQSPATLSVSPGERATLSCRASQTVGSRYLAWYQQKPGQAPRLLIYGASTRATGIPARFSGSGSGTEFTLTISSLQSEDFAVYYCQQYYSTPWTFGQGTRLEIK	fold over background	17.7

Alright, here's another binder for you.
Enquiry: Any idea what hGITR-His/BKG was measured for GITR-Mab-46 scFv (scFv, V domains shown, scFv in periplasmic extract, V5 tag) VH: QVQLVQSGAEVKKPGASVKVSCKASGGSFSNYAINWVRQAPGQGLEWMGWMNPYSGNTGYAQKFQGRVTMTRDTSTSTVYMELSSLRSEDTAVYYCAREITANYYYGMDVWGQGTKVTVSS VL: DIQMTQSPSSLSASVGDRVTITCQASQDISNYLNWYQQKPGKAPKLLIYEASVLESGVPSRFSGSGSGTDFTLTISSLQPEDFATYYCQQSYTTQYTFGQGTKVEIK ?
Return: 4

Provenance of the data: patent US20220106398A1
